- EXPERIMENTAL_SETUP: 318.15 K; 100 kPa; Liquid; Pycnometric method
± gives the expanded uncertainty stated by the source.
ASSAY_READOUT: mass density

Solved cases below.
molecule="C=C(C)C(=O)OCCCC [butyl 2-methyl-2-propenoate]" assay_readout="mass density" result_value="871.64 ± 1 kg/m3"
molecule="C=C(C)C(=O)OC [methyl methacrylate]" assay_readout="mass density" result_value="914.67 ± 1 kg/m3"
molecule="C=C(C)C(=O)OCC [ethyl 2-methylpropenoate]" assay_readout="mass density" result_value="886.71 ± 1 kg/m3"

Next, consider the following molecule.
Please list mass density recorded for the molecule CC#N [acetonitrile] 755.59 ± 1 kg/m3
